src = ChEMBL document CHEMBL4138128

# Procedure details: Cytotoxicity against mouse J774 cells
# Assay type: cell-based
Measured metric: CC50

>>> value("C/C(=N\\N=C(\\N)S)c1ccc(Cl)c(Cl)c1")
"> 100 µM"

* * *

# Assay system: UniProtKB P25779
# Sequence (P25779 whole entry): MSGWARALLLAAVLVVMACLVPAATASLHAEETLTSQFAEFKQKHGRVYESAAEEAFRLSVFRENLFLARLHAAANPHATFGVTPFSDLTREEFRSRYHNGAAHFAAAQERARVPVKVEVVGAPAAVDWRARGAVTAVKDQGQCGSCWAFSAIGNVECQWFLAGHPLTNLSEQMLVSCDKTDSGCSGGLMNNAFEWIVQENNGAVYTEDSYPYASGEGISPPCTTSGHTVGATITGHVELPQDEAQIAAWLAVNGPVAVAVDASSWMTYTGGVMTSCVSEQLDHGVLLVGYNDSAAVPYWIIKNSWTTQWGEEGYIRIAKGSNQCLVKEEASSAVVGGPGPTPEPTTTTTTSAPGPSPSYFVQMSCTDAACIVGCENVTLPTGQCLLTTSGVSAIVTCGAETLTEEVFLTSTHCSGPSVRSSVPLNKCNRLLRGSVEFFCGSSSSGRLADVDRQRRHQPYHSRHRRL
# Procedure details: Inhibition of recombinant Trypanosoma cruzi cruzain preincubated for 10 mins followed by Z-FR-AMC substrate addition measured for 5 mins at 12 secs time interval by flow cytometry relative to control
# key: entry, value: IC50
Measured metric: IC50

>>> value("C/C(=N\\Nc1nc(C)c(C)s1)c1ccc(Cl)c(Cl)c1")
"9 µM"
>>> value("C/C(=N\\Nc1nc(C)cs1)c1ccc(Cl)c(Cl)c1")
"0.6 µM"
